Data credit: patent US10479784B2

target: full-length ATR (Homo sapiens (Human)); test: ATR Inhibition Assay (radioactive-phosphate incorporation); format: biochemical; conditions: read-out: ATR Ki
Recorded Ki, one value per entry.

# annotated cases, reported Ki shown
# COMPOUND, MEASUREMENT_LABEL, RESULT
data = [
    ("CN(C)C(=O)c1ccc(-c2cnc(N)c(-c3nnc(-c4cccc(CO)c4)o3)n2)cc1", "Ki", "10 to 100 nM"),
    ("N#Cc1cnccc1-c1cnc(N)c(C(=O)Nc2nc3ccccc3[nH]2)n1", "Ki", "≤ 10 nM"),
    ("COCCN(C)C(=O)c1ccc(-c2cnc(N)c(C(=O)Nc3ccccc3)n2)cc1", "Ki", "10 to 100 nM"),
    ("Nc1ncc(-c2ccc(O)nc2)nc1-c1nc2ccccc2[nH]1", "Ki", "10 to 100 nM"),
]

Lookup: Let me know recorded Ki for COc1ccccc1-c1nnc(-c2nc(-c3ccc(C(=O)N(C)C)cc3)cnc2N)o1 , thanks.
Found: ≤ 10 nM

Lookup: Provide measured Ki value, entry: Cc1ccsc1-c1nnc(-c2nc(-c3ccc(S(=O)(=O)C(C)C)cc3)cnc2N)o1
Found: ≤ 10 nM

Lookup: State its Ki: CCc1ncccc1NC(=O)c1nc(-c2ccc(S(C)(=O)=O)cc2)cnc1N
Found: 10 to 100 nM

Lookup: # return recorded Ki for entry N#Cc1cccc(-c2cnc(N)c(-c3nnc(-c4ccccc4)o3)n2)c1
Found: 10 to 100 nM

Lookup: Supply recorded Ki for CNCc1ccc(-c2nnc(-c3nc(-c4ccc(S(=O)(=O)C5CCOCC5)cc4)cnc3N)o2)cc1 here.
Found: ≤ 10 nM

Lookup: // Input: CN(C)[C@@H]1CCN(S(=O)(=O)c2ccc(-c3cnc(N)c(-c4nnc(-c5ccccc5)o4)n3)cc2)C1 . Output its Ki only.
Found: 10 to 100 nM

Lookup: Answer with the recorded Ki for the compound listed here: CNCc1cccc(-c2nnc(-c3nc(-c4ccc(S(=O)(=O)C(C)C)cc4)cnc3N)o2)c1
Found: ≤ 10 nM

Lookup: # return recorded Ki for entry Nc1ncc(-c2ccc(O)nc2)nc1C(=O)Nc1ccccc1
Found: 10 to 100 nM

Lookup: Using the record for CN1CCC(NC(=O)c2ccc(-c3cnc(N)c(C(=O)Nc4ccccc4)n3)cc2)CC1 , state its measured Ki.
Found: 100 to 5000 nM

Lookup: Please give measured Ki of the following entry: CC#Cc1cc(C(=O)N(C)C)ccc1-c1cnc(N)c(-c2nnc(-c3ccccc3)o2)n1
Found: 10 to 100 nM

Lookup: Specify Ki for CN(C)CCS(=O)(=O)c1ccc(-c2cnc(N)c(-c3nnc(-c4ccc(O)cc4)o3)n2)cc1 and stop.
Found: ≤ 10 nM

Lookup: Could you please provide reported Ki for Cc1ccc2nc(-c3nc(-c4ccc(C(=O)N5CCCN(C)CC5)cc4)cnc3N)[nH]c2c1 [III-5] ? Thanks!
Found: 10 to 100 nM

Lookup: Look up and state reported Ki for CC[S+]([O-])c1ccccc1-c1cnc(N)c(-c2nnc(-c3ccccc3)o2)n1 (centres unmarked)
Found: ≤ 10 nM

* * *

Quick list: Ki per entry.
target: full-length ATR (Homo sapiens (Human), UniProt Q13535); experiment: ATR Inhibition Assay (radioactive-phosphate incorporation); format: biochemical; details: read-out: ATR Ki
Sequence (Q13535 whole entry): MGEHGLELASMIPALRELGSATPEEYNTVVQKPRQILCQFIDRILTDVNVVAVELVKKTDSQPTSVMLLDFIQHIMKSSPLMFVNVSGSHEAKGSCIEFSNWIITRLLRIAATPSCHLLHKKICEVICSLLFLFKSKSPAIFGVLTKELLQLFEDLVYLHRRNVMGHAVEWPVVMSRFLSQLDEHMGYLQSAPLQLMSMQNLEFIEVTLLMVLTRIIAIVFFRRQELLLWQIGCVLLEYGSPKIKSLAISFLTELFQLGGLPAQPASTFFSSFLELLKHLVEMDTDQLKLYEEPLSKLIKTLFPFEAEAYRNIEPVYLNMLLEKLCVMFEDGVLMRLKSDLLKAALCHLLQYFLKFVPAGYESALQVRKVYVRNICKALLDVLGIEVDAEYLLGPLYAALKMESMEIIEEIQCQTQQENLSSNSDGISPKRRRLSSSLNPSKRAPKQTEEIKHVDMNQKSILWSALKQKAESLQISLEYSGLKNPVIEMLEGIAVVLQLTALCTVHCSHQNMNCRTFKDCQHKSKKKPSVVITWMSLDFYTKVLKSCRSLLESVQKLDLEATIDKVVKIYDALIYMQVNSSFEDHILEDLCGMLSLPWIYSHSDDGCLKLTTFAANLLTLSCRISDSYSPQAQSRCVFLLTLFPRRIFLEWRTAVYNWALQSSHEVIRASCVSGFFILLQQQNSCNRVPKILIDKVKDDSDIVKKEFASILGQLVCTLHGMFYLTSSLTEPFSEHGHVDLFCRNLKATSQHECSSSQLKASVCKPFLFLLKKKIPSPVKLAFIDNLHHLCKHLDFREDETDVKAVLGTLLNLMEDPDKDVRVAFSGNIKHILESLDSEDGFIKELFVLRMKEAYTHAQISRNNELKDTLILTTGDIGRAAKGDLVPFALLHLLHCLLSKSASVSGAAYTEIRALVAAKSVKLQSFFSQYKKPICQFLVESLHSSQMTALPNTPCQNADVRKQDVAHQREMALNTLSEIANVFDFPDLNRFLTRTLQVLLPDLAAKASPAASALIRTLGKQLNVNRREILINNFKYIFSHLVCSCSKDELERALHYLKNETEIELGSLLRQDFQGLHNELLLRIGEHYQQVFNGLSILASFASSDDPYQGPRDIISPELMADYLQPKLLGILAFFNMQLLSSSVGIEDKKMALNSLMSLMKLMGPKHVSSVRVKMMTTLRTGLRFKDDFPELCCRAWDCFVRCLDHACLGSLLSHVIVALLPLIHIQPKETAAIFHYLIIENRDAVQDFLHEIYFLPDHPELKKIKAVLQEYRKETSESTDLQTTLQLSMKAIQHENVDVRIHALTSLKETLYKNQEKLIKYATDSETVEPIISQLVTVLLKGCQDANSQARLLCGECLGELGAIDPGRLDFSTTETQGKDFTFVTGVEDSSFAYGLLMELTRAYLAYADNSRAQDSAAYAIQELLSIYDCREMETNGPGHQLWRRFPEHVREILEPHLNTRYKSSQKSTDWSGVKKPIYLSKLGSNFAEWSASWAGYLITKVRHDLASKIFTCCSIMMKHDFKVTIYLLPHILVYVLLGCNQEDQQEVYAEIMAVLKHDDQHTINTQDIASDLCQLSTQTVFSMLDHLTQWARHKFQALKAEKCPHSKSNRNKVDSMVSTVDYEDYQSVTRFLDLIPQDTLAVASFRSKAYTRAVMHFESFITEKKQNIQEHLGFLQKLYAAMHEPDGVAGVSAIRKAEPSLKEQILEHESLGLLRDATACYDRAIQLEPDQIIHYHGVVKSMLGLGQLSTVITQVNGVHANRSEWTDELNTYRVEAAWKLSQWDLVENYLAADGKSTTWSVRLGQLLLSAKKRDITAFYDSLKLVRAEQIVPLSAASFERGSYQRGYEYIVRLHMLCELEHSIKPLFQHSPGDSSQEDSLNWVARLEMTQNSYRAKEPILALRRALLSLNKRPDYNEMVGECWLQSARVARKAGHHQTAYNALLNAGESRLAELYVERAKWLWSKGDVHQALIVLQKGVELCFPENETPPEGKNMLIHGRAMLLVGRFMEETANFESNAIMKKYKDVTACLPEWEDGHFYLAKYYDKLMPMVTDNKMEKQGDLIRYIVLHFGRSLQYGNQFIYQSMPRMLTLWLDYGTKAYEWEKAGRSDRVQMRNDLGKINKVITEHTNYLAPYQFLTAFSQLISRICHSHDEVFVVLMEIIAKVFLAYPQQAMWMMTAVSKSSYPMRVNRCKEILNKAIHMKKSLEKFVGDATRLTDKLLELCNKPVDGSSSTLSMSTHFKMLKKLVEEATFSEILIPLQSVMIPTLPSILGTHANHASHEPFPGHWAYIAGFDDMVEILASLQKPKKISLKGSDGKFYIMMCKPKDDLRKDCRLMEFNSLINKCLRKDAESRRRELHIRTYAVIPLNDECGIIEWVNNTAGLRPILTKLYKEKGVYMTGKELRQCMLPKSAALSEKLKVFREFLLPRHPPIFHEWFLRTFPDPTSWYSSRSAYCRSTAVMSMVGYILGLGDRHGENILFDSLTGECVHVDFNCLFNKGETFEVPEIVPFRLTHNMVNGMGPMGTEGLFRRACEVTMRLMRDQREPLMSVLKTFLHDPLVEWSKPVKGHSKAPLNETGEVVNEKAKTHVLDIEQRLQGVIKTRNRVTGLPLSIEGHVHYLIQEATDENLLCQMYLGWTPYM

Here's what some known entries look like.
# COMPOUND, Ki
data = [
    ("CN(C)C(=O)c1ccc(-c2cnc(N)c(-c3nnc(-c4ccccc4OCCO)o3)n2)cc1", "≤ 10 nM"),
    ("Nc1ncc(-c2cccnc2)nc1C(=O)Nc1cccc2cc[nH]c12 [Compound V-15]", "100 to 5000 nM"),
    ("CCNCc1ccc(-c2nnc(-c3nc(-c4ccc(S(=O)(=O)C(C)C)cc4)cnc3N)o2)s1", "≤ 10 nM"),
    ("CCS(=O)(=O)c1ccc(-c2cnc(N)c(-c3nnc(-c4ccc(CNC)cc4)o3)n2)cc1", "≤ 10 nM"),
    ("CCNCc1ccc(-c2nnc(-c3nc(-c4ccc(S(=O)(=O)C(C)C)cc4)cnc3N)o2)cc1", "≤ 10 nM"),
]

Lookup: Dear colleague, please send me the reported Ki for CC(C)S(=O)(=O)c1ccccc1-c1cnc(N)c(-c2nnc(-c3ccccc3)o2)n1 when you can.
Found: 100 to 5000 nM

Lookup: Hello, please tell me recorded Ki for this one: NCC[S+]([O-])c1ccccc1-c1cnc(N)c(-c2nnc(-c3ccccc3)o2)n1 (centres unmarked)
Found: 10 to 100 nM

Lookup: Read off the recorded Ki for CNCc1ccc(-c2nnc(-c3nc(-c4ccc(S(=O)(=O)C(C)C)cc4)cnc3N)o2)c(F)c1
Found: ≤ 10 nM

* * *

molecular target: full-length ATR (Homo sapiens (Human)); test: ATR Inhibition Assay (radioactive-phosphate incorporation); assay type: biochemical; settings: read-out: ATR Ki
pKi: −log10 of the molar value.
MEASUREMENT_LABEL: pKi

Lookup: Fill in pKi for record CN(C)C(=O)c1ccc(-c2cnc(N)c(-c3nnc(-c4ccccc4)o3)n2)c(C(F)F)c1
Found: ≥ 8.00

* * *

Target: full-length ATR (Homo sapiens (Human))
Assay: ATR Inhibition Assay (radioactive-phosphate incorporation)
Assay type: biochemical
Settings: read-out: ATR Ki
Method: Compounds were screened for their ability to inhibit ATR kinase using a radioactive-phosphate incorporation assay. Assays were carried out in a mixture of 50 mM Tris/HCl (pH 7.5), 10 mM MgCl2 and 1 mM DTT. […] After removing mean background values for all of the data points, Ki(app) data were calculated from non-linear regression analysis of the initial rate data using the Prism software package (GraphPad Prism version 3.0cx for Macintosh, GraphPad Software, San Diego Calif., USA).
Below is a list of entries, each paired with its recorded Ki value.

Example results:
# COMPOUND, Ki
records = [
    ("COc1cccc(NC(=O)c2nc(-c3cccnc3)cnc2N)c1 [Compound I-86]", "10 to 100 nM"),
    ("CN(C)C(=O)c1ccc(-c2cnc(N)c(-c3nnc(Nc4ccccc4C#N)s3)n2)cc1 [IVA-3]", "100 to 5000 nM"),
    ("CS(=O)(=O)c1ccc(-c2cnc(N)c(C(=O)Nc3nc4ccccc4[nH]3)n2)cc1 [Compound V-11]", "≤ 10 nM"),
]

Lookup: For the compound N#Cc1cc(C(=O)N2CCCNCC2)ccc1-c1cnc(N)c(-c2nnc(-c3cccs3)o2)n1 [IA-152] , give its reported Ki.
Found: ≤ 10 nM

* * *

target: full-length ATR (Homo sapiens (Human), UniProt Q13535); experiment: ATR Inhibition Assay (radioactive-phosphate incorporation); format: biochemical; conditions: read-out: ATR Ki
# Ki listing for each entry below

Lookup: Determine from records and report Ki for CC(C)[S+]([O-])c1ccccc1-c1cnc(N)c(-c2nnc(-c3ccccc3)o2)n1 (centres unmarked)
Found: 10 to 100 nM

Lookup: Note down Ki recorded for CN(C)[C@@H]1CCN(C(=O)c2ccc(-c3cnc(N)c(-c4nnc(-c5ccccc5)o4)n3)cc2F)C1
Found: ≤ 10 nM

* * *

molecular target: full-length ATR (Homo sapiens (Human), UniProt Q13535); assay: ATR Inhibition Assay (radioactive-phosphate incorporation); assay type: biochemical; details: read-out: ATR Ki
pKi: −log10 of the molar value.
Consider the following molecules and their measured pKi readings.

# MOLECULE, pKi
measured = [
    ("CNCc1ccc(NC(=O)c2nc(-c3ccc(S(=O)(=O)C(C)C)cc3)cnc2N)cc1", "7.00 to 8.00"),
    ("C#Cc1nnc(-c2nc(-c3ccc(S(=O)(=O)C(C)C)cc3)cnc2N)o1", "≥ 8.00"),
    ("CS(=O)(=O)c1ccc(-c2cnc(N)c(-c3nc4ccc(C#N)cc4[nH]3)n2)cc1", "7.00 to 8.00"),
    ("N#Cc1cnccc1-c1cnc(N)c(C(=O)Nc2ccccc2)n1", "≥ 8.00"),
    ("CC(C)S(=O)(=O)c1ccc(-c2cnc(N)c(-c3nnc(N4CC(N)C4)o3)n2)cc1", "5.30 to 7.00"),
    ("CN(C)CCNc1nccc(-c2cnc(N)c(-c3nnc(-c4ccccc4)o3)n2)c1C#N", "7.00 to 8.00"),
    ("N#CCCN1CCN(C(=O)c2cccc(-c3cnc(N)c(C(=O)Nc4ccccc4)n3)c2)CC1", "5.30 to 7.00"),
    ("COC1CN(C(=O)c2ccc(-c3cnc(N)c(C(=O)Nc4ccccc4)n3)cc2)C1", "7.00 to 8.00"),
]

Lookup: Supply pKi value. Item: Nc1ncc(-c2ccoc2)nc1-c1nnc(-c2ccccc2)o1
Found: 7.00 to 8.00

Lookup: Quote pKi reported for CC(=O)c1cccc(-c2cnc(N)c(C(=O)Nc3ccccc3)n2)c1 please.
Found: 7.00 to 8.00

* * *

Reported pKi values follow for various compounds
target: full-length ATR (Homo sapiens (Human), UniProt Q13535); test: ATR Inhibition Assay (radioactive-phosphate incorporation); assay type: biochemical; details: read-out: ATR Ki
pKi: −log10 of the molar value.

Lookup: Please tell me the measured pKi for CCCCOC(=O)c1nnc(-c2nc(-c3ccc(S(=O)(=O)C(C)C)cc3)cnc2N)o1 ; system: full-length ATR (Homo sapiens (Human), UniProt Q13535).
Found: 7.00 to 8.00

Lookup: Print full-length ATR (Homo sapiens (Human), UniProt Q13535) pKi for Nc1ncc(-c2cccnc2)nc1C(=O)Nc1ccncn1 .
Found: 5.30 to 7.00

Lookup: // fetch pKi for CN(C)C(=O)c1ccc(-c2cnc(N)c(-c3nnc(-c4ccccc4C(F)(F)F)o3)n2)cc1 ; system: full-length ATR (Homo sapiens (Human), UniProt Q13535)
Found: 7.00 to 8.00
